biological target: HLA-DR DRB1*0301 (DR3) (Homo sapiens, UniProt P01903+P01911, A100K/A102G/A103R/A169T/F55Y/I96L/K41T/L162R/M171V/P40S/Q125H/Q178H/Q39Y/R42S/S66N/T106N/T262R/W38E/Y61H); assay: biochemical; format: binding
Sequence (P01903 26-254 limits assumed, other chains not shown): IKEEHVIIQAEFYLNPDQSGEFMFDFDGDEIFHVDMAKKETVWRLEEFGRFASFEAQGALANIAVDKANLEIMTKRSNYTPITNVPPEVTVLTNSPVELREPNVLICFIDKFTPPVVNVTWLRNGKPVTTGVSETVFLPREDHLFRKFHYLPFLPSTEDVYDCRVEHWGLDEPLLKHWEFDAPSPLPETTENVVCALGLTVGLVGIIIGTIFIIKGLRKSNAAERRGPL
No end group written: not given here.
Decide using IC50 alone. Strictly below 30 µM: 1. Equal to or above 30 µM: -1.

[[record]]
residues = "ICLLLIQSWLEPVQF"
class = -1

[[record]]
residues = "HPLYNMSLLKHQSLR"
class = 1

[[record]]
residues = "TTLLRALGAQKEAIS"
class = -1

[[record]]
residues = "VGGAYLLPRRGPRLGV"
class = -1

[[record]]
residues = "KEDSHTAWTIVRVEI"
class = -1


Given GSHLVEALYLVCGER , is recorded IC50 strictly lower than 30 µM? -1

Please state whether IC50 is below 30 µM for VGGVYLLRRAGPRLGV -1

Take the sequence APPRLITDSRVLERY and say whether its IC50 is less than 30 µM. 1

Below 30 µM on IC50? Entry YLVCGERGFLYTPKT 1

Is 30 µM strictly greater than the sequence's reported IC50? sequence: AATYNFAVLKLMGRGTKF -1

Below 30 µM on IC50? Entry TSITSLYQLENYTG -1

Does this sequence meet the criterion IC50 < 30 µM? SDSNIYDLLKDLEEG -1

IC50 under 30 µM? Item: LWQLNGRLEYTLKDR 1

In plain terms, does VGGVYLLARRGPRLGV come in under 30 µM for IC50? 1

hey, is IC50 for VCGERGFFYTPKTRR lower than 30 µM or not? 1

In plain terms, does VILLGRHSLFHPEDT come in under 30 µM for IC50? 1

Decide: IC50 of QAKKEKLNIWSEDNADSGQ strictly below 30 µM? -1
